# protocolDetails: Plasma pharmacokinetics of BI 187004 after single oral doses (LC–MS/MS)
# testSettings: male, human, plasma, oral, 160 mg, Plasma C10 gMean (range), 160 mg single dose; 10 h
valueKind: concentration at 10 h (nM)
Express your answer in nM, writing the number without its unit.

concentration at 10 h in this record for `N#Cc1ccc2c(c1)[C@H]1CCCN(C(=O)c3ccc4[nH]cnc4c3)[C@H]1C2` : 3000

----------
# protocolDetails: Plasma pharmacokinetics of BI 187004 after single oral doses (LC–MS/MS)
# testSettings: male, human, plasma, po, 5 mg
valueKind: half-life (h)
Express your answer in h, writing the number without its unit.

half-life in this record for N#Cc1ccc2c(c1)[C@H]1CCCN(C(=O)c3ccc4[nH]cnc4c3)[C@H]1C2 [BI 187004] : 33.5

----------
# protocolDetails: Plasma pharmacokinetics of BI 187004 after single oral doses (LC–MS/MS)
# testSettings: male, human, plasma, po, 10 mg, Plasma concentration Median, 10 mg single oral; 6 h
valueKind: concentration at 6 h
Answers without a unit are incomplete; give the number and then its unit.

concentration at 6 h in this record for N#Cc1ccc2c(c1)[C@H]1CCCN(C(=O)c3ccc4[nH]cnc4c3)[C@H]1C2 [BI 187004] : 243 nM

----------
# protocolDetails: Plasma pharmacokinetics of BI 187004 after single oral doses (LC–MS/MS)
# testSettings: male, human, plasma, po, 80 mg, BI 187004 plasma concentrations, 80 mg single oral, planned time 12 h, Max
valueKind: concentration at 12 h (nM)
Express your answer in nM, writing the number without its unit.

concentration at 12 h in this record for `N#Cc1ccc2c(c1)[C@H]1CCCN(C(=O)c3ccc4[nH]cnc4c3)[C@H]1C2` : 2210

----------
# protocolDetails: Plasma pharmacokinetics of BI 187004 after single oral doses (LC–MS/MS)
# testSettings: male, human, plasma, po, 10 mg, Plasma concentration Mean, 10 mg single oral; 48 h
valueKind: concentration at 48 h (nM)
Express your answer in nM, writing the number without its unit.

concentration at 48 h in this record for N#Cc1ccc2c(c1)[C@H]1CCCN(C(=O)c3ccc4[nH]cnc4c3)[C@H]1C2 [BI 187004] : 22.8

----------
# protocolDetails: Plasma pharmacokinetics of BI 187004 after single oral doses (LC–MS/MS)
# testSettings: male, human, plasma, po, 360 mg, BI 187004 plasma concentrations, gMean, 360 mg single oral, planned time 4 h
valueKind: concentration at 4 h (µM)
Express your answer in µM, writing the number without its unit.

concentration at 4 h in this record for N#Cc1ccc2c(c1)[C@H]1CCCN(C(=O)c3ccc4[nH]cnc4c3)[C@H]1C2 [BI 187004] : 9.32

----------
# protocolDetails: Plasma pharmacokinetics of BI 187004 after single oral doses (LC–MS/MS)
# testSettings: male, human, plasma, po, 360 mg, BI 187004 plasma concentrations, Median, 360 mg single oral, planned time 48 h
valueKind: concentration at 48 h (nM)
Express your answer in nM, writing the number without its unit.

concentration at 48 h in this record for N#Cc1ccc2c(c1)[C@H]1CCCN(C(=O)c3ccc4[nH]cnc4c3)[C@H]1C2 [BI 187004] : 869

----------
# protocolDetails: Plasma pharmacokinetics of BI 187004 after single oral doses (LC–MS/MS)
# testSettings: male, human, plasma, po, 20 mg, BI 187004 plasma concentrations, 20 mg single oral, planned time 24 h, Mean
valueKind: concentration at 24 h (nM)
Express your answer in nM, writing the number without its unit.

concentration at 24 h in this record for N#Cc1ccc2c(c1)[C@H]1CCCN(C(=O)c3ccc4[nH]cnc4c3)[C@H]1C2 [BI 187004] : 187

----------
# protocolDetails: Plasma pharmacokinetics of BI 187004 after single oral doses (LC–MS/MS)
# testSettings: male, human, plasma, po, 80 mg, BI 187004 plasma concentrations, 80 mg single oral, planned time 10 h, Max
valueKind: concentration at 10 h (nM)
Express your answer in nM, writing the number without its unit.

concentration at 10 h in this record for `N#Cc1ccc2c(c1)[C@H]1CCCN(C(=O)c3ccc4[nH]cnc4c3)[C@H]1C2` : 2570

----------
# protocolDetails: Plasma pharmacokinetics of BI 187004 after single oral doses (LC–MS/MS)
# testSettings: male, human, plasma, po, 2.5 mg, C24 gMean (%gCV), 2.5 mg single oral dose
valueKind: concentration at 24 h (nM)
Express your answer in nM, writing the number without its unit.

concentration at 24 h in this record for `N#Cc1ccc2c(c1)[C@H]1CCCN(C(=O)c3ccc4[nH]cnc4c3)[C@H]1C2` : 4.54

----------
# protocolDetails: Plasma pharmacokinetics of BI 187004 after single oral doses (LC–MS/MS)
# testSettings: male, human, plasma, po, 360 mg, BI 187004 plasma concentrations, gMean, 360 mg single oral, planned time 96 h
valueKind: concentration at 96 h (nM)
Express your answer in nM, writing the number without its unit.

concentration at 96 h in this record for `N#Cc1ccc2c(c1)[C@H]1CCCN(C(=O)c3ccc4[nH]cnc4c3)[C@H]1C2` : 72.3

----------
# protocolDetails: Plasma pharmacokinetics of BI 187004 after single oral doses (LC–MS/MS)
# testSettings: male, human, plasma, po, 240 mg, BI 187004 plasma concentrations, Median, 240 mg single oral, planned time 3 h
valueKind: concentration at 3 h (µM)
Express your answer in µM, writing the number without its unit.

concentration at 3 h in this record for N#Cc1ccc2c(c1)[C@H]1CCCN(C(=O)c3ccc4[nH]cnc4c3)[C@H]1C2 [BI 187004] : 5.84

----------
# protocolDetails: Plasma pharmacokinetics of BI 187004 after single oral doses (LC–MS/MS)
# testSettings: male, human, plasma, po, 5 mg, Plasma concentration Median, 5 mg single oral; 96 h
valueKind: concentration at 96 h (nM)
Express your answer in nM, writing the number without its unit.

concentration at 96 h in this record for `N#Cc1ccc2c(c1)[C@H]1CCCN(C(=O)c3ccc4[nH]cnc4c3)[C@H]1C2` : 4.24

----------
# protocolDetails: Plasma pharmacokinetics of BI 187004 after single oral doses (LC–MS/MS)
# testSettings: male, human, plasma, po, 80 mg, BI 187004 plasma concentrations, 80 mg single oral, planned time 72 h, Min
valueKind: concentration at 72 h (µM)
Express your answer in µM, writing the number without its unit.

concentration at 72 h in this record for `N#Cc1ccc2c(c1)[C@H]1CCCN(C(=O)c3ccc4[nH]cnc4c3)[C@H]1C2` : 0.0463

----------
# protocolDetails: Plasma pharmacokinetics of BI 187004 after single oral doses (LC–MS/MS)
# testSettings: male, human, plasma, po, 5 mg
valueKind: Vd/F (L)
Express your answer in L, writing the number without its unit.

Vd/F in this record for N#Cc1ccc2c(c1)[C@H]1CCCN(C(=O)c3ccc4[nH]cnc4c3)[C@H]1C2 [BI 187004] : 281

----------
# protocolDetails: Plasma pharmacokinetics of BI 187004 after single oral doses (LC–MS/MS)
# testSettings: male, human, plasma, po, 360 mg, C24 gMean (%gCV), 360 mg single oral dose
valueKind: concentration at 24 h (nM)
Express your answer in nM, writing the number without its unit.

concentration at 24 h in this record for `N#Cc1ccc2c(c1)[C@H]1CCCN(C(=O)c3ccc4[nH]cnc4c3)[C@H]1C2` : 2690

----------
# protocolDetails: Plasma pharmacokinetics of BI 187004 after single oral doses (LC–MS/MS)
# testSettings: male, human, plasma, po, 10 mg, Plasma concentration Median, 10 mg single oral; 2.5 h
valueKind: concentration at 2.5 h

concentration at 2.5 h in this record for N#Cc1ccc2c(c1)[C@H]1CCCN(C(=O)c3ccc4[nH]cnc4c3)[C@H]1C2 [BI 187004] : 381 nM

----------
# protocolDetails: Plasma pharmacokinetics of BI 187004 after single oral doses (LC–MS/MS)
# testSettings: male, human, plasma, po, 40 mg, BI 187004 plasma concentrations, 40 mg single oral, planned time 3 h, gMean
valueKind: concentration at 3 h (nM)
Express your answer in nM, writing the number without its unit.

concentration at 3 h in this record for `N#Cc1ccc2c(c1)[C@H]1CCCN(C(=O)c3ccc4[nH]cnc4c3)[C@H]1C2` : 1510

----------
# protocolDetails: Plasma pharmacokinetics of BI 187004 after single oral doses (LC–MS/MS)
# testSettings: male, human, plasma, po, 80 mg, BI 187004 plasma concentrations, 80 mg single oral, planned time 8 h, gMean
valueKind: concentration at 8 h (nM)
Express your answer in nM, writing the number without its unit.

concentration at 8 h in this record for N#Cc1ccc2c(c1)[C@H]1CCCN(C(=O)c3ccc4[nH]cnc4c3)[C@H]1C2 [BI 187004] : 1740

----------
# protocolDetails: Plasma pharmacokinetics of BI 187004 after single oral doses (LC–MS/MS)
# testSettings: male, human, plasma, po, 20 mg, BI 187004 plasma concentrations, 20 mg single oral, planned time 8 h, Mean
valueKind: concentration at 8 h (nM)
Express your answer in nM, writing the number without its unit.

concentration at 8 h in this record for `N#Cc1ccc2c(c1)[C@H]1CCCN(C(=O)c3ccc4[nH]cnc4c3)[C@H]1C2` : 464
